tested target: Integrin alpha-V/beta-3 (Homo sapiens, UniProt P05106+P06756)
Sequence (P05106 27-788 limits assumed): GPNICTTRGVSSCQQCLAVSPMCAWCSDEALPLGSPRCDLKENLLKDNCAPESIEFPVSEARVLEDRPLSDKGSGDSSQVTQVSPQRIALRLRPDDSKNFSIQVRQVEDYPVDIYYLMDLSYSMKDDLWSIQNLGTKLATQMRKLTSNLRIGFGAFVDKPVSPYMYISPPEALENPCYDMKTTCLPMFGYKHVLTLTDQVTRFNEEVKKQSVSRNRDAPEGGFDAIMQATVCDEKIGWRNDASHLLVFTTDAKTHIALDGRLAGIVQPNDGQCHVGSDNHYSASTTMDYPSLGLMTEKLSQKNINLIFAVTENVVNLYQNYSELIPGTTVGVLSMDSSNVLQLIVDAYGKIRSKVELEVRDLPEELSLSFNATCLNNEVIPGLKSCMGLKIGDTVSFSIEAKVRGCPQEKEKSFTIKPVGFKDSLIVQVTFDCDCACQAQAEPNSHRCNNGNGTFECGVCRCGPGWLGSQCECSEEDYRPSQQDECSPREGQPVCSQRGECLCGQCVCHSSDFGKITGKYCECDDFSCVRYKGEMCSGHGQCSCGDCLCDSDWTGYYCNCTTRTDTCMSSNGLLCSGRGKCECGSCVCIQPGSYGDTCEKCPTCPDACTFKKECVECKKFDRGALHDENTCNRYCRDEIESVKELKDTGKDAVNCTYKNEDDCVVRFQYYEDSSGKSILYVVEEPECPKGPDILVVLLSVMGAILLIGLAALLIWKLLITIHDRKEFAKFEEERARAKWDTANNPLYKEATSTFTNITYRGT
Sequence (P06756 31-889 limits assumed): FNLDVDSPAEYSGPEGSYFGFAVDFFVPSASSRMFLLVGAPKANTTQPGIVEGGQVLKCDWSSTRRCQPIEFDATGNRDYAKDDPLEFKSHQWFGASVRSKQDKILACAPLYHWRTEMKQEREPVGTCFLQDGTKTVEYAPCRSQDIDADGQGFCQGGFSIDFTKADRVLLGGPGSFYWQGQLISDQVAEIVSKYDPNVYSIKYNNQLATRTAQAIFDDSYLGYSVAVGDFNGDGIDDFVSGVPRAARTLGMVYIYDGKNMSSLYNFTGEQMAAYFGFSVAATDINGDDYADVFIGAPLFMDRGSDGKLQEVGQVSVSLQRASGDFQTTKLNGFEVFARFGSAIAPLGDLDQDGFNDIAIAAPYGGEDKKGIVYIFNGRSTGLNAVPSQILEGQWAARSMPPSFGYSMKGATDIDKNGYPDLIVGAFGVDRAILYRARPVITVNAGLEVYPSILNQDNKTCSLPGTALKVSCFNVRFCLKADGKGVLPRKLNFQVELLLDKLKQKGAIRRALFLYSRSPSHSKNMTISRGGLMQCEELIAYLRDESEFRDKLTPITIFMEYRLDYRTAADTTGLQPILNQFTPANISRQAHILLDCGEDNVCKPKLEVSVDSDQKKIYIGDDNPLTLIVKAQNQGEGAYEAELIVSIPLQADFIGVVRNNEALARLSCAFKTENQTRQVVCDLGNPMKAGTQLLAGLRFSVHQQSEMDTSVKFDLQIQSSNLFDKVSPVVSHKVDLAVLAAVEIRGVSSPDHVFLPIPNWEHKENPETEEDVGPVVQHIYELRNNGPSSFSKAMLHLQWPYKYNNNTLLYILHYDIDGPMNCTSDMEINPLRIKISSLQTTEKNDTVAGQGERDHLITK
Sequence (P06756 891-1048 limits assumed): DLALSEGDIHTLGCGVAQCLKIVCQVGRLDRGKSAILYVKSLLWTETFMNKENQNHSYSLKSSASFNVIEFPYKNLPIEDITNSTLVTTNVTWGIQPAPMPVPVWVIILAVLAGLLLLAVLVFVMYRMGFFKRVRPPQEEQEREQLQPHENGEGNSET
experimental details: Selectivity against alphaV-beta3 integrin
Format: protein-complex assay
measurement type: IC50 (nM)
Give the number; nM is assumed, so skip it.

stdin: Find the recorded IC50 belonging to O=C(CNC(=O)c1ccc(NC(=O)NCc2ccccc2)o1)NC[C@H](NC(=O)OCc1ccccc1)C(=O)O and report it.
stdout: 0.4

stdin: Find the recorded IC50 belonging to O=C(CNC(=O)c1cnc(NC(=O)NCc2ccccc2)o1)NC[C@H](NC(=O)OCc1ccccc1)C(=O)O and report it.
stdout: 1.8
